Assay: label from the status in PepcDB records
reported.endpoint: protein production

{"biopolymer.sequence": "STERRRDELSEEINNLREKVMKQSEENNNLQSQVQKLTEENTTLREQVEPTPEDEDDDIELRGAAAAAAPPPPIEEECPEDLPEKFDGNPDMLAPFMAQCQIFMEKSTRDFSVDRVRVCFVTSMMTGRAARWASAKLERSHYLMHNYPAFMMEMKHVFEDPQRREVAKRKIRRLRQGMGSVIDYSNAFQMIAQDLDWNEPALIDQYHEGLSDHIQEELSHLEVAKSLSALIGQCIHIERRLARAAAARKPRSPPRALVLPHIASHHQVDPTEPVGGARMRLTQEEKERRRKLNLCLYCGTGGHYADNCPAKASKSSPAGNSPAPL", "test.result": "not failed"}
{"biopolymer.sequence": "SLSSTELGDLFWSWLRDGLREGDIPVNTADACVHLTCGFVFISVPGVFFLFLKSHSRSCSSGLKESGRKEQVQAAFEKMRKHRVSDSRRFWQCCLYEEPGGRGRYKKLTGYLIKMSEIYANGNFPDDSLFLKVIN", "test.result": "not failed"}

* * *

Assay: label from the status in PepcDB records
reported.endpoint: protein production

{"biopolymer.sequence": "VQSKNPVLIEGFPGIGLVGNIASQHIIEELNMEYIGSIDSRYFPSIAVLYEGLINMPVRIYENVEHNLIIVISDIPISHSVSYDVSNALVDWAEAINVKEIASIAGIAIMDGGHKVFGAATTPEMLDKIRDKVEIFQMGTISGISGSVMAECLLRGIPAISLLGATRTQNPDPRAASSVIGVLNELYGLSISTDRLIEQAERIEIELQRLAEDVQATERKGEVKKEFPMYG", "protein production": "failed"}
{"biopolymer.sequence": "MAGMDNLIAIAAAMLYLLSIATIVPGLVNQTGIRAKTVFISAAIALLFHGWLLSDLILHSSGQNLSILNVASLISFIISLAMSLAMFKTRLWFLLPVAYSFSAINLSAATFLPGTFITHLESDPKLLLHISLALFSYSTLSIGALYALQLAWLDHKLKSKKVFSINPNLPPLLLVERQLFKIILIGNLLLTGTLLTGFIFVQDMFAQGKAHKGILSFVAWIVYSILLWGHYRKGWRGKKVTWFAVAGATLLTLAYFGSRFVREIILR", "protein production": "failed"}
{"biopolymer.sequence": "MLNSAGKLIYGLCFLLVVCVNNAMAEVIHSERSLYRNILVEDNGDLRCLKFNVKSTKTRQSCLLKSQPQQLVFNYTKQLLTGLLVNPEPKHILIIGLGGGTMSNTLHQLLPDSYIDNVEIDESVIKVARQYFGFLENDQIKTYSQDGRVFVKRALLKKQEYDWIILDAFNGDYIPEHLMTKEYLEETKRLLSPQGILTANTFSSSQLYRYESATYKAVFGDYYQVSNPDNSNRIILARNSGLDENLYKELAAAEQSESITQLAIKLLAIGVEVKQLYKNIKSTATHQDWPDDSPVLTDQFSPANLLNIDVD", "protein production": "failed"}
{"biopolymer.sequence": "LSHGDFELAVPGGPVAAYYAAPAGREQLPIVLVVQEIFGLHEHIKDVCRRLAHDGYLAVSVNLYQRQGDASRYDNIPGLVAELVSKVPDEQVHADLDASLAWAAAHGGDGARVGVTGFCWGGRTTWMYAARNPAVKAGVAWYGRLSSGHGPLIKQVPLDVAGSLHAPVLGLYGGKDESIPLDDVRAMEARLQQGGAPAQASRIVVYPQAGHAFLADYRPSYRAADAQDGWRRMLDWFALYL", "protein production": "failed"}
{"biopolymer.sequence": "MITIKKQEIVKLEDVLHLYQAVGWTNYTHQTEMLEQALSHSLVIYLALDGDAVVGLIRLVGDGFSSVFVQDLIVLPSYQRQGIGSSLMKEALGNFKEAYQVQLATEETEKNVGFYRSMGFEILSTYDCTGMIWINREK", "protein production": "not failed"}

Kindly note the recorded protein production for MEKMYNVGKIVNTHGLIGEIRVIATTDFPEERFQVGNTVYLFEKNSKKPEKLIIRSHRKHKNFDLLMFEGLTGIHQVERMKEGVLKIKEAQLTDLEENEFYFHEIIGTVVTTDGEELGEITEILTPGANDVWVVKGADKKEKLIPYIADVVKDINTNDKKITIEVMEGLLDLEHHHHHH , which is failed

Kindly note the recorded protein production for LAQEKNYDLPEGVMVYVIEGPFFFGAVETFQSALANTHTDPKVLIIRMRWVPFIDVTGLQAMEEIILNLQKRGVRVLLSEANPLVDAKLRKMGIVQLIGEQNYYKEFSQALDVCRINDSDRKSQPPFEVAKPLASVTQ , which is not failed

Kindly note the recorded protein production for MGTIILTWNIQWGRGADGRVDLSRMLAEARAMGSFDVLCLQEVTSGFGHLPGQPGEDQWQELAGALGQAFTLIDGIALERHEGAQIRRFGNAIATRLPVLHVARHALPCPADAGPTMPRMAIEAIVQAPFGPLRVVSTHLEYYSETQRIAQIDALRALHVEGCMRAAHPPTLGPEPTDGPFRPLAQTRATVICGDFNCKPDSKPKRLATVPFSHEAAALYDAWETAHGPTPQPPTFGVHDRTGWTEPAYACDFMLVSEPLKTRVTRVEVNSTTQASDHQPTLLELRDAE , which is failed

* * *

Experiment: label from the status in PepcDB records

{"biopolymer.sequence": "MFNKVAFMNIPMMDLIMIVIAIIITIGSFLFIAYLIFKYSKIKKQVKIIREVKINLPKMLKSNMIKNSFLIISLLCFYFGMLYIAGELVISHILFIAICWIVVFLYIIIKGETRGYICEEGLLVSGVLYSWKEFKDVKIEDNYIILTTPIHKIVIKKEKGVENILKNYLKRN", "protein production": "failed"}
{"biopolymer.sequence": "MSLSSLLIIFSSSFMALFPVINPLGNGFVVNGFFADLDPSQRKTAIQKLTINFIMIGVGTLLIGHLFLLIFGLAIPVIQLGGGILICKTAIELLGDSNSSDKEGTSQNVDSFKWKSIEQKIFYPITFPISIGPGSISVIFTLMASASVKGKLLHTGINYLVIALVIICMAGILYVFLSQGQRIIQKLGPVGNQIINKLVAFFTFCIGIQISVTGISQIFHLNIL", "protein production": "failed"}

* * *

Experiment: label from the status in PepcDB records
reported.endpoint: protein production

{"biopolymer.sequence": "MIVPYSVEDILKDGCFLERAEIDRLLDRLRTKKNLILQGPPGTGKTWLAKRLAFALMGQKDDSKVRAVQFHPNLSYEDFVRGWRPTGEGKLSLADGVFMEAIKAASKDPSSKFVVVIEEINRGNPAQIFGELLTLLEAGKRTPNEALELCYPDADGKRRPVHIPENLYVVGTMNIADRSLALVDLALRRRFAFVGLEPRLGQVWRDWVVKECAVDPLEHHHHHH", "reported.endpoint": "protein production", "test.result": "failed"}
{"biopolymer.sequence": "MVMARNRNSNQLASHGAQAALDQMKYEIAQEFGVQLGADTSSRANGSVGGEITKRLVAMAEQQLGGGYTRLEHHHHHH", "reported.endpoint": "protein production", "test.result": "not failed"}
{"biopolymer.sequence": "MMAIQRVGIIGAGKVGIVLAGLALDAGYTVRISGSGSVKKIALTIKTLVPGAIASENADVVANSDIILLAIPLSRYKNIDADLLKGKLVIDAMNYWWETDGIREEVLDPSTTSSEQVQTYFKDAKIVKAFNHMGYHNLQEEARPKGDPKRKALFVTGNDPEAVATVAAFVDHMGFDTVVHNNLADGIMTEPGSPLFGASLRYAELKDIIDHFDQTEFGKEVAAQTHK", "reported.endpoint": "protein production", "test.result": "failed"}
{"biopolymer.sequence": "MWALLLRFYIALPLSVIVLLVLKTSFPTHKQALHSYFAGSFSLIGSQIFTYAATQYLSSGMIALMFGLAPIMAGLIGRFAFGQHLFKLQWLGMAVAVCGLAIICLNGSNQHVHPFGIVLMLVSVFVYSFSIFWVKKVNAKIQPMAQATGSILVSSILASCLIPFIWQYAPTHLPQAKSLFALIYTVLMASLVAMFCYFKLVQNIKPTTLSLTTVITPMLAMIIGAVLNHEQLSIMVFVGAFIILFGLFLYFYKDIQANRNFAQHIKSK", "reported.endpoint": "protein production", "test.result": "failed"}
{"biopolymer.sequence": "MSLSDLLYEIQDKVGLLTMNRISKHNAFDNQLLTEMRIRLDSAINDTNVRVIVLKANGKHFSAGADLTWMQSMANFTEEENLEDSLVLGNLMYSISQSPKPTIAMVQGAAFGGGAGLAAACDIAIASTSARFCFSEVKLGLIPAVISPYVVRAIGERAAKMLFMSAEVFDATRAYSLNLVQHCVPDDTLLEFTLKYASQISNNAPEAVKNSKQLAQYVANKKIDEELVRYTASLIAHKRVSDEGQEGLKAFLNKEIPNWNEGHHHHHH", "reported.endpoint": "protein production", "test.result": "not failed"}

Kindly note the recorded protein production for MYSALLNADIRIYGYLRASTDEQDASRAKNELMLFAEQMGFQVACWFEENESGAQLKRPELFRLLDIAISGDVILVEQVDRISRLNTQDWEKLKLMINKKGLKVVSLDLPTSYQFMSNTDDFTERMLSALNGMMLDMLAAVARKDYEDRRRRQAQGVQRAKLEGKYKGRPINTKLHNKIEGLLRENKSYSQIENLLGCSRHTISKVSKLIKSSIG , which is failed

Kindly note the recorded protein production for MLEHLIKISRRNWSSLKVIILAGGRGKRITLFKPFLVVCGKPLISWAFDAVNKLSDKVYLGINQSHPLFTIFKHSIFKIFPTPDISYENDVKYVVESLGPPILVLPVDIAFINNNIINNLIERCAVDMCTLKSYGSYLGVTYWTGLNFSNYTDIEVKEKLYNINTWEDYIKANKECNILLEHHHHHH , which is not failed
